src = patent US9096560B2

System: Alopecurus myosuroides (ALOMY)
procedureDetails: Example B post-emergence herbicidal test, ALOMY
Type: in vivo
testParameters: Alopecurus myosuroides, 312 h, rate 250 g/ha, evaluated after 13 days, scale 0-100, read-out: Post-emergence activity ALOMY (100=total damage to plant; 0=no damage to plant)
experimentalEndpoint: pest or weed control at 250 g/ha (%)
Enter your answer as a number in %; do not include the unit.

State the recorded pest or weed control at 250 g/ha for this entry: C=CCOC(=O)OC1=C(c2c(C)cc(C)cc2C)C(=O)C(CC2CCOC2)C1 (centres unmarked) 90

Moving on to the next compound: Cc1cc(C)c(C2C(=O)C/C(=C\C3CCOC3)C2=O)c(C)c1 (centres unmarked) 90

Moving on to the next compound: Cc1cc(C)c(C2=C(OS(=O)(=O)C3CC3)CC(CC3CCOC3)C2=O)c(C)c1 (centres unmarked) 70

Moving on to the next compound: Cc1cc(C)c(C2C(=O)CC(CC3CCN(C(=O)CC(C)C)CC3)C2=O)c(C)c1 (centres unmarked) 90

Moving on to the next compound: Cc1cc(C)c(C2C(=O)CC(CC3C[C@@H]4O[C@H]3[C@@H]3C(=O)NC(=O)[C@@H]34)C2=O)c(C)c1 (relative stereo) 20
